Recorded values, source the supplement of paper PMC10065799.

biological target: MERTK (UniProt Q12866); assay: phosphorylation enrichment, bacterial display (enrichment ratio); higher = better substrate or ligand; peptides without Tyr show the background
Sequence (Q12866 whole entry, looked up): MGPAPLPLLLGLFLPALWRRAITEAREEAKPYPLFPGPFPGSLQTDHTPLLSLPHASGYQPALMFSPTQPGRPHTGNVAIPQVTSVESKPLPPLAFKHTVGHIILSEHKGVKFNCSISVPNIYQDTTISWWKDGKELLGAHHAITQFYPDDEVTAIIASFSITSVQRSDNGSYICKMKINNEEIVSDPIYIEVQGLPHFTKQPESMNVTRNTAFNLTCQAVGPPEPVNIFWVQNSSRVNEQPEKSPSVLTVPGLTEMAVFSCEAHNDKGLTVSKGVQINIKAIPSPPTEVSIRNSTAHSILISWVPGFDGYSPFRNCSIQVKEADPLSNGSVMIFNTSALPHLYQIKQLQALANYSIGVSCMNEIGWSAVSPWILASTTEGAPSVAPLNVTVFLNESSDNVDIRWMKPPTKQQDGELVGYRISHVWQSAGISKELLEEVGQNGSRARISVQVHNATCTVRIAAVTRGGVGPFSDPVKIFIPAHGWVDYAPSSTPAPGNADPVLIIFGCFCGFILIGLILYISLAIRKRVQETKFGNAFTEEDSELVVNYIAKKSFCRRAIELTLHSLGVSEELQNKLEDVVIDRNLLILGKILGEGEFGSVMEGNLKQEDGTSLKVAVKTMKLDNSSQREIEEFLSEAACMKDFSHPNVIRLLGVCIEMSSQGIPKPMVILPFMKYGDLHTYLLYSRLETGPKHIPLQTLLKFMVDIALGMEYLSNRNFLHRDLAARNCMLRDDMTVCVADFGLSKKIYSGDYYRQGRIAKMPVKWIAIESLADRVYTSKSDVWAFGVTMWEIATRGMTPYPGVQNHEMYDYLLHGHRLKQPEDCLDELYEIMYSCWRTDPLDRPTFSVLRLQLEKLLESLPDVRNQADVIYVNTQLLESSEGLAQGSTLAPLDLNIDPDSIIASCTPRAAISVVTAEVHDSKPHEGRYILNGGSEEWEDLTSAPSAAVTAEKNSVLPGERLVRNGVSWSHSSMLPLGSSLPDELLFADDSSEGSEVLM
quantity.name: phosphorylation enrichment
Answers are plain numbers.

Observe how each entry below is paired with its result.
[
  {
    "sequence.text": "RWHEGYRQTPK [CD44_Y412]",
    "quantity.name": "phosphorylation enrichment",
    "obs.value": 0.356
  },
  {
    "sequence.text": "PELINYHQHYS [BTK_Y361_N365Y]",
    "quantity.name": "phosphorylation enrichment",
    "obs.value": 0.319
  },
  {
    "sequence.text": "KSLFHYRQFSA [CPS1_Y1491_YF]",
    "quantity.name": "phosphorylation enrichment",
    "obs.value": 0.415
  },
  {
    "sequence.text": "EVESPYEVRDY [GIGYF2_Y1168_H1171R]",
    "quantity.name": "phosphorylation enrichment",
    "obs.value": 0.554
  },
  {
    "sequence.text": "FHKALYTVRSY [PDE6C_Y266]",
    "quantity.name": "phosphorylation enrichment",
    "obs.value": 0.414
  }
]

Batch of 7 sequences: report phosphorylation enrichment for each.
1. RHPFFFAPELL [ALB_Y174_Y174F_YF]
2. NHFKIYNLFAE [PTEN_Y68_C71Y_YF]
3. AKVKPYINGTS [IBTK_Y1064_V1065I]
4. ARLEFCENEKK [IRS1_Y47_Y47C_YF]
5. KIKGWYEKCEP [KRT26_Y119]
6. LKGQVYILGGE [ASS1_Y359_R363G]
7. SSVPDYLAAVD [GLB1_Y154_D151V]

[0.727, 0.329, 0.358, 0.434, 0.446, 1.05, 0.463]

* * *

Provide the recorded phosphorylation enrichment for the entries that follow.
target: EPHB2 (UniProt P29323); assay: phosphorylation enrichment, bacterial display (enrichment ratio); higher = better substrate or ligand; peptides without Tyr show the background
Sequence (P29323 whole entry, looked up): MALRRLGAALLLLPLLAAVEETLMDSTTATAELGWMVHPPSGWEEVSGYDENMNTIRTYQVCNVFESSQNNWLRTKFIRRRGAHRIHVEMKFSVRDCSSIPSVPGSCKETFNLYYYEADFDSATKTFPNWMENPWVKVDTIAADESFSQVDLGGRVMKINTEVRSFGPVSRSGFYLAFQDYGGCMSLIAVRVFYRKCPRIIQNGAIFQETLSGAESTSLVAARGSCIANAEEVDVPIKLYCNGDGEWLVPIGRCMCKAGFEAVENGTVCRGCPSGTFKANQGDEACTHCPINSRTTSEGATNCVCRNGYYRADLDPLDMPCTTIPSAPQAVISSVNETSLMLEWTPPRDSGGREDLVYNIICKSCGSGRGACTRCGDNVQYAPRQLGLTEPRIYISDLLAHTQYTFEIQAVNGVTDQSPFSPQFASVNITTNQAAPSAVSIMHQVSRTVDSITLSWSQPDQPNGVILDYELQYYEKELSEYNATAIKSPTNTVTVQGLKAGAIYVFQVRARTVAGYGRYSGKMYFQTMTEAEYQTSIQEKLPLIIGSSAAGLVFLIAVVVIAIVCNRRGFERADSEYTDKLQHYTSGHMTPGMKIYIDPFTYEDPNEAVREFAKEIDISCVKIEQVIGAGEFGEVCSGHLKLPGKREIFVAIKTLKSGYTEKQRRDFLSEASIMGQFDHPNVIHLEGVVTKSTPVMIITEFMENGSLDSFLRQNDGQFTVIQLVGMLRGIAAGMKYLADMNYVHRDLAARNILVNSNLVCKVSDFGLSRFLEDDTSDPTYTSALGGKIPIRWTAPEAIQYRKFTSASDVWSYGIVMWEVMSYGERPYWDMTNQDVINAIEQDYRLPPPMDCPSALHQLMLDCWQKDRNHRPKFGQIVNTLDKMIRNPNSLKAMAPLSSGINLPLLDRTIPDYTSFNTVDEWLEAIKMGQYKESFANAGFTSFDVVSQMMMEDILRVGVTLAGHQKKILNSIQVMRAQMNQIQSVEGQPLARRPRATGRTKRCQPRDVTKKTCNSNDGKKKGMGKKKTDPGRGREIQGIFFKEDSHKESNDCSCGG
Answers are plain numbers.

Example entries and their recorded answers appear below.
[
  {
    "sequence.text": "SLIDGYYRLTA [JAK2_Y372]",
    "obs.value": 0.495
  },
  {
    "sequence.text": "WKKKIYEESST [MOCS2_Y170_E168K]",
    "obs.value": 0.526
  },
  {
    "sequence.text": "DAVCFYRMENA [NPHS2_Y195_I192V_YF]",
    "obs.value": 0.685
  },
  {
    "sequence.text": "SSQILYKLEQS [THADA_Y701_V699I]",
    "obs.value": 0.451
  },
  {
    "sequence.text": "CTNPQYLAAGS [RABL3_Y185_R184Q]",
    "obs.value": 0.505
  }
]

Each sequence below has a reported value. Please supply its phosphorylation enrichment.
1. NLTVNYKKNLI [SQOR_Y259]
2. VFGVSYDEFRF [CFTR_Y512_I507V_YF]
3. HKLSYCEYDFE [BTK_Y40_Y40C]
4. HHTDECEFDEL [TGM1_Y134_Y134C_YF]
5. EFGFRYELVQF [UGGT2_Y1289_Y1285F_YF]
6. RRGMPYGGLGD [TGM1_Y312_R315L]

1: 0.401; 2: 0.577; 3: 1.14; 4: 0.426; 5: 0.585; 6: 0.536

Give phosphorylation enrichment for each of the items listed below.
1. LQEQNYLAVDS [FAM114A1_Y115]
2. RGNMYYENSYA [EGFR_Y113]
3. LLAGLYRGQAL [FGFR4_Y390]
4. MPLTEYLKRIK [CNGB3_Y200]
5. IVFVICDEVVK [SLC25A1_Y297_Y297C]
6. IVTLKYPIEHG [ACTB_Y69_L65V]

1: 2.83; 2: 0.619; 3: 0.594; 4: 0.365; 5: 0.555; 6: 0.412

Please state, for each entry, its recorded phosphorylation enrichment.
1. QEIATYRRLQE [KRT14_Y415_L419Q]
2. AEPHTYEEPGR [EPHA8_Y616]

1. 0.721
2. 0.476

Each of the following entries comes with a recorded value; kindly state phosphorylation enrichment for each.
1. SISLKYEGRVY [ABL1_Y167_R166K]
2. PHMQTYEVDPN [SDHB_Y61_L65P]
3. FSDQVYRQHRK [TH_Y230_R233H]
4. AERKLYRNVML [ZNF569_Y33_Q29E]
5. QELRRYLKSGV [MICA_Y194]

0.747
0.628
0.452
0.408
0.875

Quick batch: phosphorylation enrichment for everything below.
1. MQMEEYRGRVE [BTNL2_Y91_W94R]
2. RHTRSYDYMEG [FGF7_Y56]
3. KNNSIYVVANI [VNN1_Y134]

0.39
0.92
0.761

Record phosphorylation enrichment for all entries; do not skip any.
1. MDNQEYKDAYT [BRDT_Y331_K336T]
2. LDPMVYMNDTS [PTK2B_Y834_K838T]
3. MPQNEYIELHR [NSA2_Y6]
4. EVRTQYEEIAQ [KRT76_Y361_A359T]

1: 0.796; 2: 0.734; 3: 0.673; 4: 0.504

I have 4 sequences here; please give me phosphorylation enrichment for each one.
1. WNDLDYVDSRR [GAA_Y407_M408V]
2. FENGEYIIRQG [PRKG1_Y247_YF]
3. RVNSAYQDKVS [ACAN_Y100]
4. VKALKYKSMKI [ITGA11_Y1098_L1093V]

1: 0.869; 2: 0.464; 3: 0.648; 4: 0.331

* * *

test system: AncSZ; test: phosphorylation enrichment, bacterial display (enrichment ratio); higher = better substrate or ligand; peptides without Tyr show the background
quantity.name: phosphorylation enrichment
Give bare numbers.

[
  {
    "sequence.text": "KNSFKYYMSDD [ATRX_Y203_C200S]",
    "measurement.target": "AncSZ",
    "phosphorylation enrichment": 0.92
  },
  {
    "sequence.text": "SIKDKHVTALF [KCNH2_Y611_Y611H_YF]",
    "measurement.target": "AncSZ",
    "phosphorylation enrichment": 0.576
  }
]

# ---- query sequence ----
Under AncSZ: phosphorylation enrichment value of KGEDFYCVTCP [FHL1_Y149_H154P] ?
1.47

* * *

target: Grb2 SH2 (UniProt P62993); assay: SH2 binding enrichment of the phosphorylated peptide, bacterial display (enrichment ratio); higher = better substrate or ligand; peptides without Tyr show the background
Sequence (P62993 whole entry, looked up): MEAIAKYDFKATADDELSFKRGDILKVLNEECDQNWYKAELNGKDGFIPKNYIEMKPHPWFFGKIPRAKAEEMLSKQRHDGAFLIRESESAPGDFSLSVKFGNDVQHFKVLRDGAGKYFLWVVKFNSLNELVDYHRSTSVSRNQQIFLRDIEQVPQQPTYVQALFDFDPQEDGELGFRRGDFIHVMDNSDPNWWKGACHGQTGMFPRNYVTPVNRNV
# SH2 binding enrichment >= 0.9 gives Condition met, anything below gives Condition not met

Examples with answers:
[
  {
    "sequence.text": "EDDPEYMRLRN [ADD2_Y31]",
    "cat": "Condition not met"
  },
  {
    "sequence.text": "GHNDVYISEHV [GRIN2A_Y1423]",
    "cat": "Condition met"
  },
  {
    "sequence.text": "SLEKSYELLDG [ACTB_Y240_P243L]",
    "cat": "Condition met"
  },
  {
    "sequence.text": "DGTVHYVDEKG [IFT140_Y216]",
    "cat": "Condition not met"
  },
  {
    "sequence.text": "FEPDAYDDLDQ [ELP5_Y302_YF]",
    "cat": "Condition met"
  }
]

Next, consider the following sequence.
Test whether the sequence FDSPFYRDSLP [TSC1_Y508] records SH2 binding enrichment of 0.9 or higher.
Condition not met

* * *

Please provide measured SH2 binding enrichment for the entries that follow.
target: SHP2-C SH2; experiment: SH2 binding enrichment of the phosphorylated peptide, bacterial display (enrichment ratio); higher = better substrate or ligand; peptides without Tyr show the background
Numbers only.

Some solved entries appear below for comparison.
[
  {
    "sequence.text": "LEEFQYIGESQ [MSH2_Y856]",
    "measurement.target": "SHP2-C SH2",
    "SH2 binding enrichment": 0.688
  },
  {
    "sequence.text": "HKLSYCEYDFE [BTK_Y40_Y40C]",
    "measurement.target": "SHP2-C SH2",
    "SH2 binding enrichment": 0.68
  },
  {
    "sequence.text": "CPSLLYSPVSS [CAMKK2_Y128_P127L]",
    "measurement.target": "SHP2-C SH2",
    "SH2 binding enrichment": 0.682
  },
  {
    "sequence.text": "ADLLVYIKALN [HPRT1_Y81_D80V]",
    "measurement.target": "SHP2-C SH2",
    "SH2 binding enrichment": 0.681
  },
  {
    "sequence.text": "RPDSPYSRPHD [DOK2_Y271]",
    "measurement.target": "SHP2-C SH2",
    "SH2 binding enrichment": 0.422
  }
]

For each of the sequences below, state SH2 binding enrichment.
1. DAANNYARGHF [TUBA3E_Y103_S101N_YF]
2. KLSFSYGRALQ [ALDOB_Y302]
3. SSRKEYFIGGG [GYPC_Y126]
4. DHAGEYGAEAL [HBA1_Y25_A20D]
5. TYAVSYLPDMS [FLNC_Y1602_T1599A]
6. RKKEEYKMALY [F8_Y1990]
7. LVIIKYLPEWT [PSEN1_Y240_F237I]

[0.823, 0.955, 0.677, 1.11, 0.95, 0.762, 1.28]

Hi there! I need SH2 binding enrichment for each item below, if you can.
1. AEEEIYGEFEA [Src_opt_1995]
2. KKRSSYGNSSD [SELENOK_Y52_R50S]

1. 0.69
2. 0.609

Each of the following entries comes with a recorded value; kindly state SH2 binding enrichment for each.
1. SECCKYKIDNL [OSMR_Y689_P694L]
2. DKATEYIQYMR [MAX_Y70]
3. AAPAAHDAADT [GAMT_Y27_Y27H]
4. QRDSSYFWEIE [RAF1_Y340_YF]
5. PAIERYVVVCK [RHO_Y136_L131P]

[0.477, 1.4, 0.8, 0.917, 0.751]

For the 3 sequences below, give their SH2 binding enrichment values.
1. RGDTVYTVNRM [KBTBD13_Y404]
2. IVTLKYPIEHG [ACTB_Y69_L65V]
3. FIRKDYEACKA [BBS4_Y48_YF]

1: 0.655; 2: 0.807; 3: 0.731

Provide each entry's SH2 binding enrichment from the list below.
1. LQEQNYLAVDS [FAM114A1_Y115]
2. GQLIFYAPPEW [CNTN6_Y315]
3. LDPMVYMNDTS [PTK2B_Y834_K838T]
4. PLGVPYLDKPP [JMJD7_Y31_A28G]
5. CNSFRYGGGGG [NPPA_Y151]

1: 0.53; 2: 0.963; 3: 0.668; 4: 0.645; 5: 1.29

Record SH2 binding enrichment for all entries; do not skip any.
1. TGDFGYRAPGY [TNS2_Y668]
2. EPSVDYCVVKI [CAD_Y735]
3. EMFNPYFGLFE [NEDD4L_Y679_YF]
4. PVKAAYQKVVA [HBB_Y131_Q128K]
5. SVAVPYEPPEV [TP53_Y220_V217A]
6. SLDHPYEKPRK [INAVA_Y333]
7. YAREGYSALPQ [SARS2_Y52]

[0.619, 1.22, 1.1, 0.879, 0.719, 0.683, 0.577]

Give measured SH2 binding enrichment for every item shown.
1. KFLENYLNCLL [PLD2_Y169_R172C_YF]
2. SPPEVYAIMRG [NTRK1_Y757_C752S]
3. RSAGKYDVFFI [MECP2_Y120_L124F_YF]
4. NKEPRYQEEPP [TJP2_Y479_D482E]
5. WAFNLYDINKY [KCNIP3_Y174_D179Y]
6. GLRQGYFVEAQ [APCS_Y142]
7. DTQNSYWCATS [TSC1_Y304_G305W]

1. 1.61
2. 1.16
3. 0.794
4. 0.644
5. 0.803
6. 0.718
7. 0.849

Each sequence below has a recorded value; state its SH2 binding enrichment.
1. QKTGDYYDLYG [PTPN11_Y62_N58K]
2. TVMGLYQKSSL [MYH7_Y609_V606M]
3. RHTRSYDFMEG [FGF7_Y56_YF]
4. IEENGYNTFAS [FGF10_Y161_YF]

1: 1.04; 2: 1.13; 3: 1.2; 4: 0.66
